# credit: patent US8329755B2

Below, each of the compounds is paired with its reported melting point value.

Solved entries (count: 2):
CCc1ccc(CC(=O)Nc2ccc(S(N)(=O)=O)cc2C)cc1Oc1cc(Br)cc(F)c1Cl = 207 to 209.9 °C
Cc1cc(CC(=O)Nc2ccc(S(N)(=O)=O)cc2)cc(C(=O)c2ccc(Cl)cc2)c1 = 260.9 to 263.3 °C

# melting point lookup, item Cc1cc(S(=O)(=O)NC(=O)[C@@H](N)C(C)C)ccc1NC(=O)Cc1ccc(Cl)c(Oc2cc(Cl)cc(C#N)c2)c1F.Cl 169 to 180.3 °C

Follow-up entry: Cc1cc(CC(=O)Nc2ccccc2Cl)cc(C(=O)c2cccc(Cl)c2)c1 113 to 113.8 °C
